Kindly state pIC50 for each of the entries shown.
TARGET_OR_SYSTEM: HDAC 6 (Homo sapiens, UniProt Q9UBN7)
Sequence (Q9UBN7 whole entry, species assumed): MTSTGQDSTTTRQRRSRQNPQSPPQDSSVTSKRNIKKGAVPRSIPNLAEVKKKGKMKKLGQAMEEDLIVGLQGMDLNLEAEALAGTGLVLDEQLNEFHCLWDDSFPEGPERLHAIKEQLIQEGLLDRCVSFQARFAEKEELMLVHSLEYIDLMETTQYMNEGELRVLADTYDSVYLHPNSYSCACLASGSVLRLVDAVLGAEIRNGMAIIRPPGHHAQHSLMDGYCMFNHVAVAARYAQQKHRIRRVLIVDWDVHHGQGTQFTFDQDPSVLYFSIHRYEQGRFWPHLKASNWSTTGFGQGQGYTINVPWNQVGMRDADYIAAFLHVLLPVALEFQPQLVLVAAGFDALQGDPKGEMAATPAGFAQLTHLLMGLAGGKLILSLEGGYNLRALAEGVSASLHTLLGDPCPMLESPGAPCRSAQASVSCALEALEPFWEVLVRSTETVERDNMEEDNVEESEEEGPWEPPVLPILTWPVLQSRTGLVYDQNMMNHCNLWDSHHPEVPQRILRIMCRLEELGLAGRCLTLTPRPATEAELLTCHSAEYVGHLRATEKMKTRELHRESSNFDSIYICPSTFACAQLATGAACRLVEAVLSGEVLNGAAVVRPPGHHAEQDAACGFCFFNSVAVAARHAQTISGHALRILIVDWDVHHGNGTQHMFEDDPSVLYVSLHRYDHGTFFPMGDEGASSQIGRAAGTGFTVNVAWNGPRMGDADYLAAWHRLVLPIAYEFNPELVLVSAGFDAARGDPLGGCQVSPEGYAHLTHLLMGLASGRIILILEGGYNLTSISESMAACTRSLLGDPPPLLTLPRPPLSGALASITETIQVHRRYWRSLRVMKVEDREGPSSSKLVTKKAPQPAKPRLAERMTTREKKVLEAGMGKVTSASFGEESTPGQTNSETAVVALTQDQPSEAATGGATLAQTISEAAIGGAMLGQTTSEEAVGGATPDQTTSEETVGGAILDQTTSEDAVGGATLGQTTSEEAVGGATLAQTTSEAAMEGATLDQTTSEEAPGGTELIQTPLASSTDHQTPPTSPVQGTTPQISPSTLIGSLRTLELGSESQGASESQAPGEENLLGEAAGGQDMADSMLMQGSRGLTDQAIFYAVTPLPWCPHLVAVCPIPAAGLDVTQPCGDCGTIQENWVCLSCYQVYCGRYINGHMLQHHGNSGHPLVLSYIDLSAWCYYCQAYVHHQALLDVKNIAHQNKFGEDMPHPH
ASSAY_COMMENT: HDAC enzyme fluorescence assay, HDAC 6
COND: recombinant HDAC enzyme, Boc-Lys(acetyl)-AMC
One number for each entry, as −log10 of the molar value.

Example entries and their recorded answers appear below.
COc1ccc([S+]([O-])C/C=C\SSCc2ccccc2)cc1 (stereo not drawn) [Example 32] :: 6.26
CCCSS/C=C\C[S+]([O-])c1cccc(OC)c1 (stereo not drawn) [Example 18] :: 5.96

Moving on to another molecule below.
# returns recorded pIC50 (system: HDAC 6 (Homo sapiens, UniProt Q9UBN7)) for [O-][S+](C/C=C\SSCc1ccccc1)c1ccccc1 (stereo not drawn) [Example 6]
4.31
